A collection of binders and their measured Kd
# SYSTEM_TESTED: CAL (CFTR-associated ligand) PDZ (Homo sapiens, UniProt Q9HD26)
# ASSAY_EXPLANATION: SPR
Ends that are not written are not given here.

BINDER: ANSRWPTSKI [iCAL36 P-1 Tfa-K]
Kd: 22.3 µM
--
BINDER: ANSRWPTSK(Ac)I [iCAL36 P-1 Ac-K]
Kd: 39.5 µM
--
BINDER: ANSRWPTSKI [iCAL36 P-1 BB-K]
Kd: 20 µM
--
BINDER: ANSRK(Ac)PTSII [iCAL36 P-5 Ac-K]
Kd: 298 µM
--
BINDER: ANSRWPTSKI [iCAL36 P-1 FB-K]
Kd: 27.9 µM
--
BINDER: ANSRWPK(Ac)SII [iCAL36 P-3 Ac-K]
Kd: 122 µM
--
BINDER: ANSRWK(Ac)TSII [iCAL36 P-4 Ac-K]
Kd: 64.6 µM
